- protocol-summary: reduction of polyQ htt aggregates in cells – imaging, exon1htt(103Q)mCFP cells, high-content imaging, primary screen (AID 483);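 also: compound exposure lasted 3 days before fixation; percent of the per-plate median nuclei count of sample wells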
- condition-parameters: exon1htt(103Q)mCFP cell line, aggregate imaging, at 2 µM; measured here: cell count, toxicity
Listing: nuclei count of selected molecules
value-type: nuclei count (%)

| molecule | unit-name | result |
| --- | --- | --- |
| Nn1c(CSc2nc3ccccc3o2)nnc1CSc1nc2ccccc2o1 | % | 85.3 |
| Cc1ccc(C(=O)Nc2ccc3c(c2)OCO3)o1 | % | 106 |
| CC1CCc2nc(NC(=O)CN3CCN(Cc4ccc5c(c4)OCO5)CC3)sc2C1 (stereo not given) | % | 100 |
| COc1ccc(C(=O)N(Cc2ccco2)C(C(=O)NC2CCCC2)c2ccc(O)cc2)cc1OC (stereo not given) | % | 104 |
| Cc1nn(-c2ccccc2)c(Cl)c1C1C(C#N)=C(N)OC2=C1C(=O)CC(C)(C)C2 (stereo not given) | % | 100 |
| CCOC(=O)c1cc2c(=O)n3cccc(C)c3nc2n(CCc2ccccc2)c1=N | % | 86.6 |
| COc1cc2[nH]c(=O)n(CCCCCC(=O)NCCCN3CCCC3=O)c(=O)c2cc1OC | % | 102 |
| O=C(c1cccn2c(=O)c3cc(Cl)ccc3nc12)N1CCOCC1 | % | 106 |
| CN1Cc2c(N)cccc2C(c2ccccc2)C1 (stereo not given) | % | 95.3 |
| C/C(CC(O)(/C=N/O)c1ccccc1)=N\O (stereo not given) | % | 97 |
| Cn1c(=O)c(-c2ccccc2)nn2c3ccccc3nc12 | % | 96.1 |
| Cc1cc2ncc(C(=O)Nc3ccccc3)c(C)n2n1 | % | 101 |
| CN(C)c1nc(N)nc(CSc2nnnn2-c2cccc3ccccc23)n1 | % | 71.9 |
| CC(=O)C1=C(O)C(=O)N(Cc2ccco2)C1c1ccc2c(c1)OCO2 (stereo not given) | % | 104 |
| COC(=O)c1cccc(NC(=O)NC2CCCN2S(=O)(=O)c2ccc(Cl)cc2)c1 (stereo not given) | % | 101 |
| CCc1nccn1S(=O)(=O)c1ccc2ccc(C)cc2c1 | % | 104 |
| CCCn1nnnc1SCC(=O)c1ccc2c(c1)OCCO2 | % | 120 |
| O=c1c2ccccc2nnn1CSc1nc2cc(Cl)ccc2c(=O)n1Cc1ccco1 | % | 76 |
| CCOc1ccc(N2CC(C(=O)Nc3ccc(F)cc3F)CC2=O)cc1 (stereo not given) | % | 92.8 |
| CC(=O)OCC(=O)[C@@]1(O)CC[C@H]2[C@@H]3CCC4=CC(=O)C=C[C@]4(C)[C@H]3[C@@H](O)C[C@@]21C | % | 67.7 |
| CCn1cc(C(=O)O)c(=O)c2cnc(N3CCNCC3)nc21 | % | 108 |
| CCOC(=O)c1sc(N2C(=O)C(O)=C(C(=O)c3ccco3)C2c2ccccc2)nc1C (stereo not given) | % | 102 |
| CC(C)(C)OC(=O)N1CC(O)CC1C(=O)OCC(=O)c1ccc(Cl)cc1 (stereo not given) | % | 105 |
| Cn1c(=O)c2ncn(CC(=O)NCCOc3ccccc3)c2n(C)c1=O | % | 98 |
| CC(CN1CCOCC1)(NS(=O)(=O)c1ccccc1)c1ccccc1 (stereo not given) | % | 85.8 |
| Cc1nnc2ccc(N3CCC4(CC3)OCCO4)nn12 | % | 112 |
| CCC(=O)n1nc(-c2ccco2)nc1N | % | 104 |
| O=C(O)c1ccccc1C(=O)Nc1ccccc1 | % | 82.7 |
| O=C(Cn1c(=O)[nH]c2ccsc2c1=O)NC1CCCCCC1 | % | 104 |
| CCN(CC)CCNC(=O)C1CCN(S(=O)(=O)N2CCCCC2)CC1 | % | 48.9 |
| CCN(CC)CCCN(Cc1cc2cc(OC)ccc2[nH]c1=O)C(=O)Nc1ccccc1 | % | 86.4 |
| CCOc1ncccc1C(=O)OCC(=O)Nc1ncc(C(F)(F)F)cc1Cl | % | 80.7 |
| CN(C)CC(=O)N1c2ccccc2CCc2ccc(NC(=O)c3ccc(N)cc3)cc21 | % | 95.1 |
| Cc1cc(NC(=O)NC(=O)c2cccc(OC(F)(F)C(F)F)c2)n[nH]1 | % | 76.8 |
| CCn1c(SCC(=O)N2CCCc3ccccc32)nnc1-c1cccs1 | % | 98.7 |
| COc1ccccc1C1c2c(oc3ccc(Cl)cc3c2=O)C(=O)N1c1cc(C)on1 (stereo not given) | % | 103 |
| O=C(NCC1CCCO1)C1CC(c2ccc(Cl)c(Cl)c2)=NO1 (stereo not given) | % | 103 |
| O=C(Nc1nccs1)c1ccc(Cl)c(S(=O)(=O)N2CCCCC2)c1 | % | 109 |
| Cc1nnc(SCCn2c(N3CC(C)CC(C)C3)nc3c2c(=O)n(C)c(=O)n3C)s1 (stereo not given) | % | 84.9 |
| CCOc1ccc(-c2nnc(N(CC)C(=O)C3CCC3)s2)cc1 | % | 103 |
| CCN(CC(=O)NC(=O)NCc1ccco1)Cc1nc2ccccc2c(=O)[nH]1 | % | 97.9 |
| COc1ccc(CCNS(=O)(=O)c2ccc(C(=O)NCc3ccco3)cc2)cc1OC | % | 94.7 |
| O=C(Nc1ccccc1)c1ccc(NCC2CCCO2)c(S(=O)(=O)N2CCOCC2)c1 (stereo not given) | % | 108 |
| Nc1nc(CN2CCOCC2)cs1 | % | 104 |
| CCOC(=O)C1=C(C)Nc2ncnn2C1c1ccccc1F (stereo not given) | % | 81.7 |
